B1: Hairpin Ribozyme (parent)
chain: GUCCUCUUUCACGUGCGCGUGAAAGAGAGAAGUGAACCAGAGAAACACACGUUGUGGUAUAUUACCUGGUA

Variants of: B1
Protocol description: self-cleavage, relative activity (ratio to wild type); higher = more cleavage; co-transcriptional
Labels assigned by self-cleavage range: lower bin: < 0.1; middle bin: ≥ 0.1 and < 0.2; upper bin: ≥ 0.2

Using the reported self-cleavage, which band applies to G19U G56U ?
middle bin

Using the reported self-cleavage, which band applies to C37G G40C ?
middle bin

Using the reported self-cleavage, which band applies to U52A A61U ?
lower bin

Using the reported self-cleavage, which band applies to G57C A61C ?
upper bin

Using the reported self-cleavage, which band applies to C3A U5G ?
middle bin

Using the reported self-cleavage, which band applies to U20G G32C ?
middle bin

Using the reported self-cleavage, which band applies to G32U C50A ?
lower bin

Using the reported self-cleavage, which band applies to C16G U52A ?
upper bin

Using the reported self-cleavage, which band applies to U14G U67A ?
middle bin

Using the reported self-cleavage, which band applies to U9A A45U ?
middle bin

Using the reported self-cleavage, which band applies to A30U G57C ?
lower bin

Using the reported self-cleavage, which band applies to A36C A39U ?
middle bin

Using the reported self-cleavage, which band applies to U14C A36G ?
upper bin

Using the reported self-cleavage, which band applies to G15U A61C ?
upper bin

Using the reported self-cleavage, which band applies to U5G G40C ?
middle bin

Using the reported self-cleavage, which band applies to G21C A45C ?
upper bin

Using the reported self-cleavage, which band applies to A22U C66U ?
upper bin

Using the reported self-cleavage, which band applies to G32C U53G ?
lower bin

Using the reported self-cleavage, which band applies to A26C G56C ?
lower bin

Using the reported self-cleavage, which band applies to C16G A61U ?
upper bin

Using the reported self-cleavage, which band applies to U52G U55A ?
middle bin

Using the reported self-cleavage, which band applies to G13U A43G ?
middle bin

Using the reported self-cleavage, which band applies to G27A A44G ?
lower bin

Using the reported self-cleavage, which band applies to A22C G68U ?
upper bin

Using the reported self-cleavage, which band applies to C12G C65G ?
middle bin

Using the reported self-cleavage, which band applies to G1C U7A ?
upper bin

Using the reported self-cleavage, which band applies to U5C A59C ?
middle bin

Using the reported self-cleavage, which band applies to A11G C38U ?
upper bin

Using the reported self-cleavage, which band applies to U2A G34C ?
upper bin

Using the reported self-cleavage, which band applies to A45U U62A ?
middle bin

Using the reported self-cleavage, which band applies to U33C A45G ?
upper bin

Using the reported self-cleavage, which band applies to U14C U60C ?
upper bin

Using the reported self-cleavage, which band applies to A44C A45U ?
lower bin

Using the reported self-cleavage, which band applies to A11U C38U ?
upper bin

Using the reported self-cleavage, which band applies to G27U U63G ?
upper bin

Using the reported self-cleavage, which band applies to U7G G13A ?
upper bin

Using the reported self-cleavage, which band applies to A23U U55G ?
upper bin

Using the reported self-cleavage, which band applies to A44G U67C ?
middle bin

Using the reported self-cleavage, which band applies to A22G A24G ?
upper bin

Using the reported self-cleavage, which band applies to G40A A43C ?
middle bin
